Tested on: human glioma cell U87
test summary: Tumor volume inhibition rate, i.v. dosing
Type: in vivo, Balb/c nude mice
measurement conditions: Mus musculus, iv, 264 h, Day 11, 20 mg·kg^−1, i.v., TMZ 10 mg·kg^−1, i.v.
Please map values of inhibition in vivo at 20 mg/kg to classes as shown: low value (below 60%), medium value (60% to below 80%), high value (80% or more)

{"columns": ["compound", "system name", "discrete label"],
 "data": [
  ["Cc1ccc2[se]n(CCNC(=O)c3ncn4c(=O)n(C)nnc34)c(=O)c2c1 [Compound 6]", "human glioma cell U87", "high value"],
  ["Cn1nnc2c(C(=O)NCCn3[se]c4cc(F)ccc4c3=O)ncn2c1=O [Compound 3]", "human glioma cell U87", "medium value"],
  ["Cn1nnc2c(C(=O)NCCn3[se]c4ccc(F)cc4c3=O)ncn2c1=O [Compound 2]", "human glioma cell U87", "high value"],
  ["Cn1nnc2c(C(=O)NCCn3[se]c4ccc(Cl)cc4c3=O)ncn2c1=O [Compound 4]", "human glioma cell U87", "medium value"],
  ["COc1ccc2[se]n(CCNC(=O)c3ncn4c(=O)n(C)nnc34)c(=O)c2c1 [Compound 7]", "human glioma cell U87", "low value"],
  ["Cn1nnc2c(C(=O)NCCn3[se]c4ccccc4c3=O)ncn2c1=O [Compound 1]", "human glioma cell U87", "medium value"],
  ["Cn1nnc2c(C(=O)NCCn3[se]c4ccc(Br)cc4c3=O)ncn2c1=O [Compound 5]", "human glioma cell U87", "low value"],
  ["Cc1ccc2c(=O)n(CCNC(=O)c3ncn4c(=O)n(C)nnc34)[se]c2c1 [Compound 8]", "human glioma cell U87", "high value"]
]}
